# reported Activity; entries follow
- Species on record: Rattus norvegicus
- Assay Explanation: Inhibition of rat recombinant geranylgeranyltransferase type I expressed in Escherichia coli assessed as residual enzyme activity for geranylgeranylation of K-Ras4B at 50 uM incubated for 30 mins in presence of [3H]GGPP by scintillation counting assay relative to control

{"Smiles Structure": "Cc1ccc([C@@H]2C[C@@H](SCC(C)C)[C@H](C(=O)O)CN2S(=O)(=O)c2ccccc2)cc1", "Activity": "51%"}

// `COc1ccc([C@@H]2CC=C(C(=O)O)[C@H](c3ccc(Cl)cc3)N2S(=O)(=O)c2ccccc2C)cc1` : Activity value = 80%

// `CCCCCS[C@@H]1C[C@@H](c2cccc(Cl)c2)N(S(=O)(=O)c2ccc(C)cc2)C[C@H]1C(=O)O` : Activity value = 84.6%

// `Cc1ccc(S(=O)(=O)N2C[C@@H](C(=O)O)[C@H](SCCC(C)C)C[C@H]2c2ccc3c(c2)OCO3)cc1` : Activity value = 77.4%

// `COc1ccc(S[C@@H]2C[C@@H](c3ccc(OC)c(OC)c3)N(S(=O)(=O)c3ccc(C)cc3)C[C@H]2C(=O)O)cc1` : Activity value = 101%

// `Cc1ccc(S(=O)(=O)N2[C@@H](c3cccc(F)c3)C(C(=O)O)=C[C@H]2C(C)(C)C)cc1` : Activity value = 23.7%

// `CC(=O)C1=CC[C@@H](c2ccc(C)cc2)N(S(=O)(=O)c2ccc(C)cc2)C1` : Activity value = 90.6%

====

- Species on record: Rattus norvegicus
- Assay Explanation: Inhibition of rat recombinant geranylgeranyltransferase type I expressed in Escherichia coli assessed as residual enzyme activity for geranylgeranylation of RhoA at 50 uM incubated for 30 mins in presence of [3H]GGPP by scintillation counting assay relative to control
# reported Activity; entries follow
Number in %, nothing else.

{"Smiles Structure": "Cc1ccc(S(=O)(=O)N2C[C@@H](C(=O)O)[C@H](SCc3ccc(Cl)cc3)C[C@H]2c2ccccc2)cc1", "Activity (%)": 14.2}
{"Smiles Structure": "Cc1ccc([C@H]2C(C(=O)O)=CC[C@@H](c3ccc(Cl)c(Cl)c3)N2S(=O)(=O)c2ccc(C)cc2)cc1", "Activity (%)": 15.6}
{"Smiles Structure": "Cc1ccc(S(=O)(=O)N2C[C@@H](C(=O)O)[C@H](SCC(C)C)C[C@H]2c2ccccc2)cc1", "Activity (%)": 10.7}

// `Cc1ccc(S(=O)(=O)N2C[C@@H](C(=O)O)[C@H](SCCc3ccccc3)C[C@H]2c2cccc(Br)c2)cc1` : Activity value = 3.1

====

- Organism: Rattus norvegicus
- Assay Explanation: Inhibition of rat recombinant geranylgeranyltransferase type I expressed in Escherichia coli assessed as residual enzyme activity for geranylgeranylation of K-Ras4B at 50 uM incubated for 30 mins in presence of [3H]GGPP by scintillation counting assay relative to control
Use rule met when the recorded Activity is no lower than 90%; use rule not met when it is lower.

{"Smiles Structure": "Cc1ccc(S(=O)(=O)N2[C@@H](c3cccc(Br)c3)C(C(=O)O)=CC[C@H]2c2ccc(C#N)cc2)cc1", "Label Class": "rule met"}
{"Smiles Structure": "Cc1ccc([C@H]2C(C(=O)O)=CC[C@@H](c3ccc(C)cc3)N2S(=O)(=O)c2ccc(C)cc2)cc1", "Label Class": "rule not met"}
{"Smiles Structure": "COc1ccc([C@@H]2CC=C(C(=O)O)[C@H](c3cccc(Br)c3)N2S(=O)(=O)c2ccc(Cl)cc2)cc1", "Label Class": "rule not met"}
{"Smiles Structure": "Cc1ccc(S(=O)(=O)N2[C@@H](c3ccc(F)cc3)C(C(=O)O)=CC[C@H]2c2cccc(C)c2)cc1", "Label Class": "rule not met"}
{"Smiles Structure": "COc1ccc(S[C@@H]2C[C@@H](c3ccc(OC)cc3)N(S(=O)(=O)c3ccc(C)cc3)C[C@H]2C(=O)O)cc1", "Label Class": "rule met"}

In plain terms: is recorded Activity at least 90% for `CS(=O)(=O)N1[C@@H](c2cccc(Br)c2)C(C(=O)O)=CC[C@H]1c1ccccc1` ?
rule not met

====

# reported Activity; entries follow
- Species: Rattus norvegicus
- Assay Explanation: Inhibition of rat recombinant geranylgeranyltransferase type I expressed in Escherichia coli assessed as residual enzyme activity for geranylgeranylation of K-Ras4B at 50 uM incubated for 30 mins in presence of [3H]GGPP by scintillation counting assay relative to control
Number in %, nothing else.

Answered cases to consult:
{"Smiles Structure": "Cc1ccc(S(=O)(=O)N2[C@@H](c3cccc(Cl)c3)C(C(=O)O)=CC[C@H]2c2ccccc2F)cc1", "Unit String": "%", "Activity": 70.1}
{"Smiles Structure": "CCCCS[C@@H]1C[C@@H](c2cc(OC)c(OC)c(OC)c2)N(S(=O)(=O)c2ccc(C)cc2)C[C@H]1C(=O)O", "Unit String": "%", "Activity": 73.5}
{"Smiles Structure": "COc1ccc([C@@H]2CC=C(C(=O)O)[C@H](c3ccc(F)cc3)N2S(=O)(=O)c2ccc(Cl)cc2)cc1", "Unit String": "%", "Activity": 67.2}

// `Cc1ccc(S(=O)(=O)N2C[C@@H](C(=O)O)[C@H](SCc3ccc(C(C)(C)C)cc3)C[C@H]2c2cccc(Cl)c2)cc1` : Activity value = 99

// `COc1ccc(S[C@@H]2C[C@@H](c3ccc(C)cc3)N(S(=O)(=O)c3ccc(C)cc3)C[C@H]2C(=O)O)cc1` : Activity value = 78.4

// `CCCCS[C@@H]1C[C@@H](c2ccc(OC)cc2)N(S(=O)(=O)c2ccc(Cl)cc2)C[C@H]1C(=O)O` : Activity value = 72.9

// `CCCCS[C@H]1[C@@H](C(=O)O)[C@H](c2cccc(F)c2)N(S(=O)(=O)c2ccc(C)cc2)[C@@H]1CCCC` : Activity value = 23.5

// `Cc1ccc([C@@H]2C[C@@H](SCC(C)C)[C@H](C(=O)O)CN2S(=O)(=O)c2ccccc2C)cc1` : Activity value = 78.3

// `CC(=O)C1=CC[C@@H](c2cccc(Cl)c2)N(S(=O)(=O)c2ccc(C)cc2)C1` : Activity value = 86

// `Cc1ccc(S(=O)(=O)N2[C@@H](c3cccc(C)c3)C(C(=O)O)=CC[C@H]2c2cccc(Cl)c2)cc1` : Activity value = 46.9

// `Cc1ccc([C@@H]2CC=C(C(=O)O)[C@H](c3cccc(C)c3)N2S(C)(=O)=O)cc1` : Activity value = 56

====

- Species: Rattus norvegicus
- Assay Explanation: Inhibition of rat recombinant geranylgeranyltransferase type I expressed in Escherichia coli assessed as residual enzyme activity for geranylgeranylation of K-Ras4B at 50 uM incubated for 30 mins in presence of [3H]GGPP by scintillation counting assay relative to control
# reported Activity; entries follow
Number in %, nothing else.

Answered cases to consult:
{"Smiles Structure": "COc1ccc(S[C@@H]2C[C@@H](c3ccc(C)cc3)N(S(=O)(=O)c3ccccc3)C[C@H]2C(=O)O)cc1", "Unit String": "%", "Activity": 100}
{"Smiles Structure": "CCCCCCS[C@@H]1C[C@@H](c2ccc(OC)cc2)N(S(=O)(=O)c2ccc(C)cc2)C[C@H]1C(=O)O", "Unit String": "%", "Activity": 83.6}
{"Smiles Structure": "Cc1ccc([C@@H]2CC=C(C(=O)O)[C@H](c3cccc(F)c3)N2S(C)(=O)=O)cc1", "Unit String": "%", "Activity": 75}
{"Smiles Structure": "COc1cccc([C@@H]2C[C@@H](SCCC(C)C)[C@H](C(=O)O)CN2S(=O)(=O)c2ccc(C)cc2)c1", "Unit String": "%", "Activity": 62}
{"Smiles Structure": "Cc1ccc(S(=O)(=O)N2[C@@H](c3cccc(F)c3)C(C(=O)O)=CC[C@H]2c2cccc(C)c2)cc1", "Unit String": "%", "Activity": 75.6}

// `Cc1ccc(S(=O)(=O)N2[C@H](CC3CCCC3)[C@@H](SCCC(=O)OC(C)(C)C)[C@@H](C(=O)O)[C@@H]2c2ccc(Cl)c(Cl)c2)cc1` : Activity value = 16.1

// `COc1ccc([C@@H]2CC=C(C(C)=O)CN2S(=O)(=O)c2ccc(C)cc2)cc1OC` : Activity value = 83.8

// `Cc1ccc([C@@H]2CC=C(C(=O)O)[C@H](c3ccc(C(C)(C)C)cc3)N2S(=O)(=O)c2ccccc2)cc1` : Activity value = 81.6

====

# reported GI50; entries follow
- Tested on: CFPAC-1
- Assay Explanation: Antiproliferative activity against human CFPAC-1 cells assessed as inhibition of cell proliferation incubated for 72 hrs by CCK8 assay
- Format: functional, cell-based
- Conditions: CFPAC-1, 72 h
Number in µM, nothing else.

{"Smiles Structure": "Cc1ccccc1S(=O)(=O)N1[C@@H](c2cccc(Cl)c2)C(C(=O)N[C@@H](CC(C)C)C(N)=O)=CC[C@H]1c1ccc(Cl)cc1", "Recorded Value": 13.7}

In the following, a different molecule is considered.
Entry `Cc1ccccc1S(=O)(=O)N1[C@@H](c2ccc(Cl)cc2)C(C(=O)N[C@@H](Cc2ccccc2)C(=O)O)=C[C@H]1C(C)(C)C` , tested on CFPAC-1, has a reported GI50 of 6.38
